Test system: SK-OV-3 ovarian
run.description: NCI tumour cell line growth inhibition, 48 h
property: TGI

Input `CC(CCC#N)(CCC#N)C(=O)CC(O)(C(F)(F)F)C(F)(F)F` , output reported TGI.
> 100 µM

Answer with reported TGI of `CC1=CC(=O)[C@@H](O)[C@]2(C)[C@H]3[C@@]4(O)OC[C@]35[C@H]([C@@H](C)[C@H]4O)[C@@H](O)C(=O)O[C@@H]5C[C@@H]12`
> 20.5 µM

Kindly indicate its recorded TGI. Item: Cc1ccc(NC(=O)C2C(=O)N(c3ccc(C)c(C)c3)C(=O)C2N=N)cc1C (configuration not stated)
> 100 µM

Determine its reported TGI: O=C(N/N=C1/C(=O)N(c2ccc(Cl)cc2Cl)C(=O)C(=O)C1c1nc2ccccc2o1)c1ccccc1O (configuration not stated)
> 100 µM

For the compound `Nc1nc(N)c(N=Nc2ccc([As](=O)(O)O)cc2)c(=O)[nH]1` , give its reported TGI.
> 100 µM

State, in one line, measured TGI of `CCCCCCC[CH2][Sn]1([CH2]CCCCCCC)[O]C(=O)c2cccnc2[S]1`
> 100 µM

Annotate the compound O=C1c2ccccc2C2(O)c3cc4ccccc4cc3OC12O (configuration not stated) with its measured TGI.
> 100 µM

Report TGI, nothing else, for this compound: O=C1NN=C2C=C(c3ccc(Cl)cc3)CC(c3cccc(Cl)c3)C12 (configuration not stated)
> 100 µM

Complete the entry with TGI for CC(C)C[C@H]1[C@@H](OCc2ccccc2)COS(=O)N1[C@H](C)c1ccccc1 (some centres not stated)
78 µM

Fill in TGI for record `Nc1c(C(=O)Nc2cccc(Br)c2)sc2nc3c(cc12)C(=O)CCC3`
> 100 µM

Indicate the recorded TGI value for this compound: `COc1ccncc1C#Cc1cncc(C(=O)Nc2ccc(CN3CCN(C)CC3)c(C(F)(F)F)c2)c1`
> 100 µM

// Input: COc1ccc(CN(Cc2ccc(OC)cc2)C(=O)CC2(O)C=CCC2)cc1 (configuration not stated) . Output its TGI only.
> 100 µM

Supply recorded TGI for `O=C(c1cc(Cl)cc(Cl)c1)N1CCN(C(=O)c2cc(Cl)cc(Cl)c2)C1=S` here.
29.8 µM

Give TGI for the following compound: `S=c1[nH]n2c(COc3cccc(OCc4nnc5sc(=S)[nH]n45)c3)nnc2s1`
> 100 µM

Answer with the recorded TGI for the compound listed here: `O=C(/C=C/C=C/c1ccccc1)c1ccc2c(c1)CCCC2`
> 100 µM

Output TGI of `O=c1c2c(-c3ccccc3)onc2n(-c2ccccc2)c(=O)n1-c1ccccc1`
> 100 µM

Provide one value: measured TGI of CC(C)=C1C(=O)C[C@]2(C)C[C@H]3/C(=C(/C)CCC12)CC[C@@]3(C)O (some centres not stated)
> 50 µM

Tell me measured TGI for `CN(C)/C=N/n1c2ccccc2c2ccccc21` please.
> 100 µM

Identify measured TGI associated with CCc1c(OC(C)=O)c2c(NC3OC(COC(C)=O)C(OC(C)=O)C(OC(C)=O)C3OC(C)=O)nc(OC)nc2oc1=O (configuration not stated)
> 100 µM

Let me know recorded TGI for `O=c1[nH]cc(COCCO)c(=O)[nH]1` , thanks.
> 100 µM

Item `Cc1ccc(/C=C/c2c(C(=O)/C=C/c3ccc(C(F)(F)F)cc3)c(C)nc3ccccc23)cc1` : provide TGI
3.6 µM

Consider the compound `CC1(C)OC(=C(C#N)C#N)C(C#N)=C1/C=C/c1ccncc1` and give its recorded TGI.
16.8 µM

Output TGI of `C[C@H]1C2Cc3cc(N)ccc3[C@@]1(C)CCN2CCc1ccccc1`
> 100 µM

Fill in reported TGI for this entry: `COc1ccc(NC(=O)/C(N=O)=C(/C)O)cc1`
> 100 µM

Give recorded TGI. `CSc1ncnc2c1cnn2CCCCO`
> 100 µM

Output TGI of `O=C(c1ccc(Cl)cc1)c1cnc(Nc2ccccc2Cl)s1`
52 µM

Tell me measured TGI for `Ic1ccc(-n2nnnc2-c2cnoc2-c2ccccc2)cc1` please.
> 100 µM

State its TGI for this compound: `O=C(O)[C@H](NS(=O)(=O)c1ccc2ccccc2c1)c1ccccc1`
> 100 µM

Give me measured TGI, please, for this compound: `Cn1cnc([N+](=O)[O-])c1S(=O)(=O)Oc1ccccc1`
> 100 µM

For the compound COc1cc2c3c(c4cc(OC)c(OC)cc4c2cc1OC)C(=O)C1CCC(=O)N1C3 (configuration not stated) , report TGI.
61.1 µM

Output measured TGI for this item: `CCCn1c(N)c(C(=O)N/N=C(/C)c2cc3cccc(OC)c3o2)sc1=S`
> 100 µM

Supply TGI value. Item: `COc1cc(-c2nn(-c3cccc(NC(=O)Nc4ccc(Cl)c(Cl)c4)c3)cc2-c2ccncc2)ccc1Cl`
> 50 µM

Report TGI for `O=c1cc(-c2ccccc2)[nH]c2c(S)cccc12`
> 100 µM

Identify the reported TGI for the following entry. COc1cc(C2SCC(=O)N2c2ccc(Cl)c(Cl)c2)cc(OC)c1OC (configuration not stated)
> 100 µM

Give TGI for the following compound: `O=P(O)(Cc1ccccc1)c1ccccc1-c1ccccc1`
> 100 µM

Give TGI for the following compound: `CC(=C\c1ccccc1)/C=C(\C#N)C(N)=O`
> 10 µM

Give the value of TGI reported for the following: O=S(Cc1ccccn1)c1nc2ccccc2nc1-c1ccccc1 (configuration not stated)
> 100 µM

Supply TGI value. Item: `Cc1nc2ccccc2nc1-c1ccc(N=[N+]([O-])c2ccc(-c3nc4ccccc4nc3C)cc2)cc1`
> 82.5 µM

Please report the measured TGI for `CC#C[P+](c1ccccc1)(c1ccccc1)c1ccccc1`
38.5 µM

Specify TGI for `O=C1[C@@H]2C3c4ccccc4C([C@@H]2C(=O)N1c1ccccc1)S3(=O)=O` and stop.
> 100 µM

Entry `CN(CCN(C)C(=S)NN)C(=S)NN` needs its TGI filled in; supply it.
> 100 µM

Using the record for CC(=O)O[C@H]1CCC2[C@@H]3CCC4=C(O)c5nocc5C[C@]4(C)C3CC[C@@]21C (some centres not stated) , state its measured TGI.
> 100 µM

Recorded values, source PubChem BioAssay (NCI).
